assay: Stability in rat brain homogenate; assay type: in vitro ADME, male Sprague Dawley rats; settings: rat brain homogenate, 1 μM, 37° C., 120 min
For each record, check the reported % Compound Remaining (after 120 min): if it is below 0.4% write 1 (yes), else write 0 (no).

molecule | className
CC(C)n1cc(CCN(C)C)c2c(O)cc(F)cc21 [Compound 10] | 0 (no)
CNCCc1c[nH]c2cc(C)cc(O)c12 [Compound 39] | 1 (yes)
CCN(C)CCc1c[nH]c2cccc(O)c12 [Compound 4-HO-MET, reference compound] | 0 (no)
CCNCCc1c[nH]c2cccc(O)c12 [Compound 5, 3-(2-(ethylamino)ethyl)-1H-indol-4-ol] | 0 (no)
Oc1cccc2[nH]cc(CCNCCF)c12 [Compound 7] | 0 (no)
CCCNCCc1c[nH]c2ccc(F)c(O)c12 [Compound 36] | 0 (no)
CNCCc1c[nH]c2cccc(O)c12 [Compound 2, 3-(2-(methylamino)ethyl)-1H-indol-4-ol] | 1 (yes)
C#CCNCCc1c[nH]c2cccc(O)c12 [Compound 24] | 0 (no)
CC(C)NCCc1c[nH]c2cccc(O)c12 [Compound 6] | 0 (no)
CNCCc1c[nH]c2ccc(F)c(O)c12 [Compound 26] | 1 (yes)
NCCc1c[nH]c2cc(F)cc(O)c12 [Compound 31, 3-(2-aminoethyl)-6-fluoro-1H-indol-4-ol] | 1 (yes)
CC(C)NCCc1c[nH]c2ccc(F)c(O)c12 [Compound 35] | 0 (no)
CCCNCCc1c[nH]c2cccc(O)c12 [Compound 3, 3-(2-(propylamino)ethyl)-1H-indol-4-ol] | 0 (no)
CCNCCc1c[nH]c2ccc(C)c(O)c12 [Compound 37] | 1 (yes)
CCNCCc1c[nH]c2ccc(Cl)c(O)c12 [Compound 38] | 1 (yes)
CNCCc1cn(C(C)C)c2cc(F)cc(O)c12 [Compound 12] | 0 (no)
Oc1cccc2[nH]cc(CCNC3CC3)c12 [Compound 4] | 0 (no)
CCNCCc1c[nH]c2cc(F)cc(O)c12 [Compound 29] | 0 (no)
NCCc1c[nH]c2cccc(O)c12 [Compound 1, 3-(2-aminoethyl)-1H-indol-4-ol] | 1 (yes)
C=CCNCCc1c[nH]c2cccc(O)c12 [Compound 23, 3-(2-(allylamino)ethyl)-1H-indol-4-ol] | 0 (no)

* * *

Recorded log10 half-life at 1 µM for the following molecules
test: Stability in rat brain homogenate; type: in vitro ADME, male Sprague Dawley rats; conditions: male, Sprague Dawley; rat brain homogenate, 1 μM, 37° C.
measurementKind: log10 half-life at 1 µM (log10 of the value in h)

structureNotation | log10 half-life at 1 µM
CCCNCCc1c[nH]c2cccc(O)c12 | 0.36
CNCCc1c[nH]c2cccc(O)c12 | -0.98
CCNCCc1c[nH]c2ccc(F)c(O)c12 | -0.59
NCCc1c[nH]c2cccc(O)c12 | -0.78
C=CCNCCc1c[nH]c2cccc(O)c12 | 0.32
CC(C)NCCc1c[nH]c2cccc(O)c12 | 0.36
CNCCc1cn(C(C)C)c2cc(F)cc(O)c12 | 0.62
NCCc1c[nH]c2ccc(F)c(O)c12 | -1.19

* * *

target: 5-HT2C receptor (Homo sapiens); assay: cell-based; conditions: Ca2+ flux
Sequence (P28335 33-458): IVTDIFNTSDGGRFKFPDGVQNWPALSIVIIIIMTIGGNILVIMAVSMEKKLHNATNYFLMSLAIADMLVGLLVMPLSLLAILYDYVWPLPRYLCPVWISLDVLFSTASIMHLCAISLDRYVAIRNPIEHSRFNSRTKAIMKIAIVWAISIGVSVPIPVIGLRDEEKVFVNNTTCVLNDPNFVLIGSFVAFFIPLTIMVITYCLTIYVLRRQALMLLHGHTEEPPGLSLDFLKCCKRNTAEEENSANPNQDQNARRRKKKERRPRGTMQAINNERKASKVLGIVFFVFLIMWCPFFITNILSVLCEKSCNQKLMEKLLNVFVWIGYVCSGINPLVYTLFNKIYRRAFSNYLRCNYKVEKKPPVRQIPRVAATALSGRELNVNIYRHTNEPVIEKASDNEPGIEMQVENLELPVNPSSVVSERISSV
pEC50: −log10 of the molar value.
measurementKind: pEC50

compound | measuredOn | measurementKind | endpointResult
CCNCCc1c[nH]c2ccc(F)c(O)c12 | 5-HT2C receptor (Homo sapiens) | pEC50 | 7.16
CCN(C)CCc1c[nH]c2cccc(O)c12 [Compound 4-HO-MET, reference compound] | 5-HT2C receptor (Homo sapiens) | pEC50 | 7.42
CCCN(CC)CCc1c[nH]c2ccccc12 [EPT, N-ethyl-N-propyltryptamine, reference compound] | 5-HT2C receptor (Homo sapiens) | pEC50 | 7.48
CC(C)NCCc1c[nH]c2ccc(F)c(O)c12 | 5-HT2C receptor (Homo sapiens) | pEC50 | 6.49
CCN(C)CCc1c[nH]c2ccccc12 [MET, N-methyl-N-ethyltryptamine, reference compound] | 5-HT2C receptor (Homo sapiens) | pEC50 | 7.55
CN(C)CCc1c[nH]c2ccc(F)cc12 [Compound 5-F-DMT, reference compound] | 5-HT2C receptor (Homo sapiens) | pEC50 | 8.31
CC(C)n1cc(CCN(C)C)c2c(O)cc(F)cc21 | 5-HT2C receptor (Homo sapiens) | pEC50 | 7.52
CNCCc1cn(C(C)C)c2cc(F)cc(O)c12 | 5-HT2C receptor (Homo sapiens) | pEC50 | 7.60
